Value source: ChEMBL document CHEMBL1150601

testMethodNotes: Cytotoxicity against mouse Neuro2a cells
Assay type: functional, cell-based
measurementParameters: N2a
experimentalEndpoint: IC50 (µM)
# number only, unit µM dropped from output

Query: I would be grateful if you could share the reported IC50 for CC/C=C/C=C/CC[C@]1(C)C[C@H](O)[C@H](C)CC[C@H]2C[C@@H](O[C@@H]3O[C@@H](C)[C@H](OC)[C@@H](O)[C@H]3OC)C[C@@](O)(CC(=O)O1)O2 [LYNGBOUILLOSIDE] .
Response: 17
